B1: glmS ribozyme (parent)
chain: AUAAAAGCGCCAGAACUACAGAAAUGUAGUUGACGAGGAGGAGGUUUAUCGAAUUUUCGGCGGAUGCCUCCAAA

Variants of: B1
PROCEDURE_TEXT: self-cleavage kobs at 40 uM GlcN6P; higher = faster cleavage; RNA array
MEASUREMENT_SETUP: with glucosamine-6-phosphate
This sample holds only a part of the variants without activity.
Recorded self-cleavage kobs at 40 uM GlcN6P, one value per entry.

| MUTANT_CODE | self-cleavage kobs at 40 uM GlcN6P |
| --- | --- |
| A14C A64C G66A | < 1e-05 s⁻¹ |
| C16U G37A | 7.36e-05 s⁻¹ |
| G9U A15C U47C | < 1e-05 s⁻¹ |
| G13U G38A A39U | < 1e-05 s⁻¹ |
| G35U C61U U65G | < 1e-05 s⁻¹ |
| A12C U30A | 5.95e-05 s⁻¹ |
| A15G G29A G63U | < 1e-05 s⁻¹ |
| A36G U56A | < 1e-05 s⁻¹ |
| U30C G35C G59C | < 1e-05 s⁻¹ |
| U57G G62A | < 1e-05 s⁻¹ |
| U46C G62U | < 1e-05 s⁻¹ |
| C10A U30G | < 1e-05 s⁻¹ |
| A36U C67G C68G C71U | 4.88e-05 s⁻¹ |
| C8G C50A C61G G63A C71G | 8.24e-05 s⁻¹ |
| G41C C70U | 4.81e-05 s⁻¹ |
| G13A G37C | < 1e-05 s⁻¹ |
| C8U G43A U56C | < 1e-05 s⁻¹ |
| U56G G66U | 3.12e-05 s⁻¹ |
| A14C G38C G44A G63U C70G | < 1e-05 s⁻¹ |
| C34U G41A C50U C68U | < 1e-05 s⁻¹ |
| A52G G60C | < 1e-05 s⁻¹ |
| C8G G59U | < 1e-05 s⁻¹ |
| A33U A64C | < 1e-05 s⁻¹ |
| G13U U56A G59U | < 1e-05 s⁻¹ |
| G41U A42G G44A A48G | < 1e-05 s⁻¹ |
| G41A U45A | 9.19e-05 s⁻¹ |
| U30G U47A | 0.000162 s⁻¹ |
| G32A U54A | 6.3e-05 s⁻¹ |
| U31G C67A | 0.000107 s⁻¹ |
| C10A A48U A52C A64G | < 1e-05 s⁻¹ |
| A15G C34A G62U | < 1e-05 s⁻¹ |
| A36G G63A C67G | < 1e-05 s⁻¹ |
| G7U G9U | < 1e-05 s⁻¹ |
| U30G G62A | < 1e-05 s⁻¹ |
| A12U G32U A53G | < 1e-05 s⁻¹ |
| U56G U65G | 3.29e-05 s⁻¹ |
| U47A C70U | 0.000803 s⁻¹ |
| G35U G59C | < 1e-05 s⁻¹ |
| C11A A14C A36G C50U C58U C61G | 0.000206 s⁻¹ |
| U45C U55G | 6.05e-05 s⁻¹ |
| A48C A52G | < 1e-05 s⁻¹ |
| A6U U30G | < 1e-05 s⁻¹ |
| G9A A42C C71G | < 1e-05 s⁻¹ |
| C10U G66C | < 1e-05 s⁻¹ |
| A33C A36G G40A | < 1e-05 s⁻¹ |
| A64G C67U | 2.93e-05 s⁻¹ |
| A15U C67A | 4.29e-05 s⁻¹ |
| G7C U54A | < 1e-05 s⁻¹ |
| C11A G37C A39G G41A U47G | < 1e-05 s⁻¹ |
| G41U A64U | < 1e-05 s⁻¹ |
| A6U G35C G51C U65G | < 1e-05 s⁻¹ |
| G35C C50U G51C | < 1e-05 s⁻¹ |
| G40A U47C G62A A64C C70U | < 1e-05 s⁻¹ |
| G35A U56G | < 1e-05 s⁻¹ |
| G44C A52U | < 1e-05 s⁻¹ |
| C61G U65C G66A | < 1e-05 s⁻¹ |
| C8G C58G G60A | < 1e-05 s⁻¹ |
| G29U A42C C58A C67G | < 1e-05 s⁻¹ |
| G7U A42U G44C | < 1e-05 s⁻¹ |
| C34U G60U | < 1e-05 s⁻¹ |
| A15U U47A | 0.00015 s⁻¹ |
| G41A U49A | < 1e-05 s⁻¹ |
| C10U C58G | < 1e-05 s⁻¹ |
| U56C C67U | < 1e-05 s⁻¹ |
| A39C U55A | 0.000201 s⁻¹ |
| C34U U65C | < 1e-05 s⁻¹ |
| A64G C70U | 7.77e-05 s⁻¹ |
| U49C G66A | < 1e-05 s⁻¹ |
| U54G U69A | 5.13e-05 s⁻¹ |
| A6U U31C C50G | 7.08e-05 s⁻¹ |
| C10U G43C C50U C70U | < 1e-05 s⁻¹ |
| C16U C34U | < 1e-05 s⁻¹ |
| G7U G13U A53G | < 1e-05 s⁻¹ |
| G40A A48G | < 1e-05 s⁻¹ |
| A6C A33U C58G G60U C71A | < 1e-05 s⁻¹ |
| U31A U45G U54G C58A C61A | < 1e-05 s⁻¹ |
| A6U A33U A64G | < 1e-05 s⁻¹ |
| U49A G63C U69C | < 1e-05 s⁻¹ |
| C16U U56C | 4.49e-05 s⁻¹ |
| A12U C67A | 0.000743 s⁻¹ |
| C10U A12G G43U | < 1e-05 s⁻¹ |
| A15U U55A | 0.000164 s⁻¹ |
| A15G A53G | 0.00127 s⁻¹ |
| G29C U49G C58A | < 1e-05 s⁻¹ |
| A48G A64U | < 1e-05 s⁻¹ |
| G37A U54G | 6.88e-05 s⁻¹ |
| A6G G32U C34U | < 1e-05 s⁻¹ |
| G35C G40U A64U | < 1e-05 s⁻¹ |
| C50G C71A | 0.00184 s⁻¹ |
| G13C A33G A48C | < 1e-05 s⁻¹ |
| G32A G44U | < 1e-05 s⁻¹ |
